Just for reference, patent US12398141B2 is where these values come from.

# Assay Notes: Pharmacokinetic test after intragastric administration
# Assay type: in vivo
# Experimental Parameters: Sprague-Dawley, mouse, plasma, po; SD mice, 5 mg/kg intragastric; read-out: Plasma concentration (Cmax, ng/ml)
Reported Metric: Cmax (ng/mL)
API: value field is a number in ng/mL; no unit string.

Reference set, count: 3
COc1nsc(NC(=O)N[C@H]2C[C@@H](N(C)c3c(C#N)cnc4[nH]ccc34)C2)n1 [Compound H29] :: 522
CN(c1c(C#N)cnc2[nH]ccc12)[C@H]1C[C@@H]2CN(C(=O)Nc3ccc(Cl)c(C(F)(F)F)c3)C[C@@H]2C1 [Compound H25] :: 501
CN(C)c1nsc(NC(=O)N2C[C@H]3C[C@H](N(C)c4c(C#N)cnc5[nH]ccc45)C[C@H]3C2)n1 [Compound H33] :: 440

Now consider a different compound.
Problem: Give me measured Cmax, please, for this compound: CN(c1c(C#N)cnc2[nH]ccc12)[C@H]1C[C@@H](NS(=O)(=O)CCC(F)(F)F)C1 [Compound H15]
Solution: 518
